DC50 values, listed per item
- assay-system: ER-α (Homo sapiens, UniProt P03372)
- Construct: endogenous in cells; host or cells: MCF-7
- Sequence (P03372 1-595): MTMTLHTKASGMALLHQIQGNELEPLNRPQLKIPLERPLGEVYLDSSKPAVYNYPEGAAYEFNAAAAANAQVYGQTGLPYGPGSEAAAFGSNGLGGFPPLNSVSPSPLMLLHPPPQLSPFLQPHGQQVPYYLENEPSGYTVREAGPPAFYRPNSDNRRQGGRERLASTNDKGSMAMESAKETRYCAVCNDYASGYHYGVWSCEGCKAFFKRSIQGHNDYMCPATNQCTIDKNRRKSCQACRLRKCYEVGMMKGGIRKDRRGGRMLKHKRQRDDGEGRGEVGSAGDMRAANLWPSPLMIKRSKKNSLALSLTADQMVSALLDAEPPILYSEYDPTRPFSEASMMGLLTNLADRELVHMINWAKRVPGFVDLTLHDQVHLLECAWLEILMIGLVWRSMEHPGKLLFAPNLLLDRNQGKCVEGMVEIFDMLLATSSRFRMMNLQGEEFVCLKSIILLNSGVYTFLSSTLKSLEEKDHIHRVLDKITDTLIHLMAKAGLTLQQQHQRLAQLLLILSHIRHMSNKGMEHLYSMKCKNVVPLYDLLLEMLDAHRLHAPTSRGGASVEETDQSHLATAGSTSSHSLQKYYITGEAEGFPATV
- assay-method-text: ER-α In Cell Western Assay (ER1D5)
- Assay type: cell-based
- settings: MCF-7 cells, ER1D5 antibody, 4 or 24 hr post compound addition; read-out: ER In-Cell Western Assay (ER1D5); IC50

Illustrative cases are given below, each with its answer.
Exercise: I have this compound here, CC1=C(c2cccc(O)c2)C(c2ccc(OCCN3CCC[C@H]3C)cc2)Oc2ccc(O)cc21 (stereo partly shown) , and I need its recorded DC50.
Key: ≤ 1 nM

Exercise: Give the measured DC50 of CC1=C(c2cccc(O)c2)C(c2ccc(OCCn3ccnc3)cc2)Oc2ccc(O)cc21 (stereo not shown) .
Key: > 1 nM

Exercise: What value of DC50 has been reported for the following compound? CC1=C(c2cccc(O)c2)C(c2ccc(OC[C@H](C)N3CCCCC3)cc2)Oc2ccc(O)cc21 (stereo partly shown)
Key: ≤ 1 nM

Next item in the queue.
Exercise: Any idea what DC50 was measured for CC1=C(c2ccc(F)cc2)C(c2ccc(OC[C@H](C)N3CC[C@@H](C)C3)cc2)Oc2ccc(O)cc21 (mixture of isomers) ?
Key: ≤ 1 nM
